# System: HepG2 cells
# Measurement notes: Measurement of gluconeogenesis inhibitory ability
# Format: cell-based
# Condition context: Homo sapiens, HepG2, 24 h, 100 μM compound, 24 hours, HepG2 cells; content of glucose formed from 14C-lactate; lower value = stronger inhibition; read-out: Gluconeogenesis inhibition (100 μM) aver.
Counter-ions that a name gives are not always drawn.

>  <Molecule>
Cl.N=C(N)NC(=NC1CCCCCC1)NCc1ccc2c(c1)OCO2 [Example 20, hydrochloride]

>  <activity at 100 µM, %>
39.4

$$$$
>  <Molecule>
N=C(N)NC(=NCCc1ccccc1)NCc1ccc2c(c1)OCO2 [Example 7, hydrochloride]

>  <activity at 100 µM, %>
118

$$$$
>  <Molecule>
C=CCN=C(NCc1ccc2c(c1)OCO2)NC(=N)N [Example 18, hydrochloride]

>  <activity at 100 µM, %>
95.1

$$$$
>  <Molecule>
CC(C)CN=C(NCc1ccc2c(c1)OCO2)NC(=N)N.Cl [Example 23, hydrochloride]

>  <activity at 100 µM, %>
100

$$$$
>  <Molecule>
CC(C)N=C(NCc1ccc2c(c1)OCO2)NC(=N)N.Cl [Example 22, hydrochloride]

>  <activity at 100 µM, %>
83

$$$$
>  <Molecule>
Cl.N=C(N)NC(=NC1CCCC1)NCc1ccc2c(c1)OCO2 [Example 19, hydrochloride]

>  <activity at 100 µM, %>
92.7

$$$$
>  <Molecule>
Cl.N=C(N)NC(=NCc1ccc(F)c(F)c1)NCc1ccc2c(c1)OCO2 [Example 44, hydrochloride]

>  <activity at 100 µM, %>
103

$$$$
>  <Molecule>
CCN=C(NCc1ccc2c(c1)OCO2)NC(=N)N.Cl [Example 1, hydrochloride]

>  <activity at 100 µM, %>
89.8

$$$$
